assayedTarget: T1, human TNFR2 on the cell surface (CHO-TNFR2 cells; human Treg cells) (human, UniProt P20333 23-461)
T1 construct: whole, on cells; The assay field of each row says which cells; also called TNFR2-CHO cell; TNFR2 on Treg cells
T1 sequence (looked up): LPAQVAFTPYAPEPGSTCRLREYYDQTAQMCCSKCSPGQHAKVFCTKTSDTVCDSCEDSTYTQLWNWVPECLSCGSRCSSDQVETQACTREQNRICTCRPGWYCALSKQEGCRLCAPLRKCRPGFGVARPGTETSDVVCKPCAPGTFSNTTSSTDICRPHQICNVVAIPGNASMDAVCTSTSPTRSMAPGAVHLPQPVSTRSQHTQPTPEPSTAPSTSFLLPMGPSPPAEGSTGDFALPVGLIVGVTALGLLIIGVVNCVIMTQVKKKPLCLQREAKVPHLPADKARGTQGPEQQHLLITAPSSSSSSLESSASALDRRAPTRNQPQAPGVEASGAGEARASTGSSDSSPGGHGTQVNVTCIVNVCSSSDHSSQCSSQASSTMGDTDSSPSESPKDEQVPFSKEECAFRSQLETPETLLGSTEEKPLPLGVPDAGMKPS
assayProtocol: flow cytometry, blocking of TNFα-biotin on CHO-TNFR2 cells; AUC for 002# / AUC for antibody x 100
reportedEndpoint: AUC % (%)
Give the value in % but do not write % after it.

Answer with the recorded AUC % for the binder listed here: TNFR2 antibody #395 (antibody, V domains shown) VH: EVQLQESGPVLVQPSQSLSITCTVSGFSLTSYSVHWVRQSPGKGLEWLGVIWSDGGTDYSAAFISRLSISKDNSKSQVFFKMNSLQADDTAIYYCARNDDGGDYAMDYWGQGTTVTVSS VL: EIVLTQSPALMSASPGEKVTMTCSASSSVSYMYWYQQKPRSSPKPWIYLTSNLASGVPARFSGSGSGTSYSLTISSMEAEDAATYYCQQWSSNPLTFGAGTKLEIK
107
